Target under test: Muscarinic acetylcholine receptor M1 (Homo sapiens)
Protocol notes: Cholinergic receptor muscarinic 1 (CHRM1) small molecule antagonists, cell-based qHTS assay (AID 1963588); further: on the % scale 0 is the no-effect control and ±100 the full control effect; nearly all actives have a fitted effect of over 40% in size
Condition description: CHRM1-CHO antagonist mode, calcium flux fluorescence; series mostly up to 61.5 µM
Results filed as inconclusive are left out. Activity calls are given as the source filed them. The call rests on the fitted dose curve.
A correct response names exactly one class from active, inactive

Problem: Name the outcome recorded for COc1cnc(OC)n2nc(NS(=O)(=O)c3c(OCC(F)F)cccc3C(F)(F)F)nc12 in the assay.
Result: inactive

Problem: Name the outcome recorded for Cc1cc(OC(=O)N(C)C)nn1C(=O)N(C)C in the assay.
Result: inactive

Problem: Name the outcome recorded for C=CC[C@]1(O)CC[C@H]2[C@@H]3CCC4=CC(=O)CCC4=C3C=C[C@@]21C in the assay.
Result: inactive

Problem: Name the outcome recorded for O=[N+]([O-])O.O=[N+]([O-])O.[Cd] in the assay.
Result: inactive

Problem: Name the outcome recorded for O=[N+]([O-])c1cc(C(F)(F)F)cc([N+](=O)[O-])c1Cl in the assay.
Result: inactive

Problem: Name the outcome recorded for CC(Cl)CN(C)C (stereo unspecified) in the assay.
Result: inactive

Problem: Name the outcome recorded for CC(=O)O[C@H]1CC[C@@]2(C)C(=CC[C@@H]3[C@@H]2CC[C@]2(C)C(=O)CC[C@@H]32)C1 in the assay.
Result: inactive

Problem: Name the outcome recorded for O=c1[nH]c2ccccc2n1C1CCNCC1 in the assay.
Result: inactive

---

Target under test: D(2) dopamine receptor (Homo sapiens)
Protocol notes: Dopamine D2 receptor (DRD2) small molecule antagonists, cell-based qHTS assay (AID 1963595); further: potency means the concentration at half of the fitted maximal effect
Condition description: HEK293-DRD2 cAMP HTRF antagonist mode; series mostly up to 92.4 µM
Inconclusive results are not listed. Calls of active or inactive are those of the source. Calls come from the whole dose curve; as a rule, active = well fitted inhibition curve with a large enough effect in the signal ratio in the repeat runs, with a control signal flat; inconclusive = weak or mixed curves, or effect the other way; inactive = flat fitted curve, though single readings scatter; the % refers to the signal ratio.
Recorded endpoint: Potency

>>> df
                                   compound                      target_under_test  recorded_endpoint    value_measured
0       N#Cc1sc2c(=O)c3ccccc3c(=O)c=2sc1C#N  D(2) dopamine receptor (Homo sapiens)            Potency          inactive
1  NC(=O)CS(=O)C(c1ccccc1)c1ccccc1 (stereo not drawn)  D(2) dopamine receptor (Homo sapiens)            Potency          inactive
2            CCC(C)(c1ccc(O)cc1)c1ccc(O)cc1  D(2) dopamine receptor (Homo sapiens)            Potency          inactive
3                                 [As]#[In]  D(2) dopamine receptor (Homo sapiens)            Potency          inactive
4                     C=C(Cl)CSC(=S)N(CC)CC  D(2) dopamine receptor (Homo sapiens)            Potency          inactive
5  C[C@]12CC[C@H](O)C[C@H]1CC[C@@H]1[C@@H]2C[C@@H](O)[C@]2(C)[C@@H](C3=CC(=O)OC3)CC[C@]12O  D(2) dopamine receptor (Homo sapiens)            Potency          inactive
6           O=C(Oc1ccc(Br)cc1)N1CCN2CCC1CC2  D(2) dopamine receptor (Homo sapiens)            Potency          inactive
7  CC(Cc1ccc(O)cc1)NCC(O)c1cc(O)cc(O)c1 (stereo not drawn)  D(2) dopamine receptor (Homo sapiens)            Potency  5.96 µM (active)

Provide Potency for all items below, preserving their order.
1. [Hg+2].[I-].[I-]
2. Oc1cccc(Cl)c1
3. CCOP(=S)(OCC)SCS(=O)(=O)CC
4. O=C1C(=O)c2cccc3cccc1c23
5. Cc1cc(Cl)ccc1O[C@H](C)C(=O)O

Result:
27.3 µM (active)
inactive
inactive
inactive
inactive

---

Target under test: D(2) dopamine receptor (Homo sapiens)
Protocol notes: Dopamine D2 receptor (DRD2) small molecule antagonists, cell-based qHTS assay (AID 1963595)
Condition description: HEK293-DRD2 cAMP HTRF antagonist mode; series mostly up to 92.4 µM
Records with an inconclusive call do not appear. The source made the active and inactive calls. The call rests on the fitted dose curve; in most records, active means well fitted inhibition curve with a large enough effect in the signal ratio in the repeat runs, with a control signal flat; inconclusive means weak or mixed curves, or effect the other way; inactive means flat fitted curve, though single readings scatter; the % refers to the signal ratio.
A correct response names exactly one class from label 1 = active, label 0 = inactive

>>> print(df.to_string())
                                   compound  answer_label
0                           Oc1c(Cl)cccc1Cl       label 0
1  CC(Cc1ccccc1)NCCn1cnc2c1c(=O)n(C)c(=O)n2C (centres undefined)       label 0
2             Nc1ccccc1C(=O)OC/C=C/c1ccccc1       label 0
3            O=[N+]([O-])c1ccc(Cl)c(Cl)c1Cl       label 0
4        CC(=O)[O-].CC(=O)[O-].O.O.O.[Pb+2]       label 0
5  COC(=O)N(C(=O)N1COC2(C(=O)OC)Cc3cc(Cl)ccc3C2=N1)c1ccc(OC(F)(F)F)cc1 (centres undefined)       label 0
6             CC(=O)Nc1ccc2c(c1)Cc1ccccc1-2       label 0
7                   Nc1ccc2c(c1)Cc1ccccc1-2       label 0

Problem: Name the outcome recorded for c1cc[n+]2c(c1)-c1cccc[n+]1CC2 in the assay.
Result: label 0

Problem: Name the outcome recorded for Brc1ccccc1 in the assay.
Result: label 0

Problem: Name the outcome recorded for CC(C)(C)NC[C@H](O)c1ccc(O)cc1Cl in the assay.
Result: label 1

Problem: Name the outcome recorded for O=CCCl in the assay.
Result: label 0

Problem: Name the outcome recorded for C[C@H](N)C(=O)c1ccccc1 in the assay.
Result: label 0

Problem: Name the outcome recorded for COc1ccc([N+](=O)[O-])cc1O in the assay.
Result: label 0

---

Protocol notes: p53 small molecule agonists, cell-based qHTS assay with rat liver microsomes: qHTS cell viability counter screen (AID 1963580); further: nearly all actives have a fitted effect of over 45% in size; further: potency means the concentration at half of the fitted maximal effect
Condition description: p53RE-bla HCT-116 + rat microsomes, ATP viability, 16 h; series mostly up to 66 µM
Inconclusive results are not listed. Calls of active or inactive are those of the source. Calls come from the whole dose curve.
Recorded endpoint: Potency

Solved entries (count: 5):
>>> df
                                   molecule  recorded_endpoint    value_measured
0       N#Cc1sc2c(=O)c3ccccc3c(=O)c=2sc1C#N            Potency  16.2 µM (active)
1                  [Cl-].[Cl-].[Cl-].[Yb+3]            Potency          inactive
2  CC(Cc1ccc(C(C)(C)C)cc1)CN1C[C@@H](C)O[C@@H](C)C1 (stereo partly specified)            Potency          inactive
3  O=C(NC(=O)c1cc(F)c(F)cc1Cl)Nc1cc(F)ccc1N1CCC(C(=O)O)CC1            Potency          inactive
4                   O=[N+]([O-])c1ccccc1CCl            Potency          inactive

Problem: Please indicate Potency recorded for O=[N+]([O-])c1cc(C(F)(F)F)c(Cl)c([N+](=O)[O-])c1Cl
Result: 36.3 µM (active)

---

Protocol notes: p53 small molecule agonists, cell-based qHTS assay with rat liver microsomes: qHTS cell viability counter screen (AID 1963580); further: nearly all actives have a fitted effect of over 45% in size
Condition description: p53RE-bla HCT-116 + rat microsomes, ATP viability, 16 h; series mostly up to 66 µM
Inconclusive results are not listed. Calls of active or inactive are those of the source. Calls come from the whole dose curve.
A correct response names exactly one class from y for active, n for inactive

>>> print(df.to_string())
                                   compound  answer_label
0                          CC(=O)NNc1ccccc1             n
1                               Oc1ccccc1Br             n
2                        O=c1[nH]c2ccccc2o1             n
3    CCOC(=O)c1cn2nc(OP(=S)(OCC)OCC)cc2nc1C             n
4  C[C@]12Cc3cn[nH]c3C[C@@H]1CC[C@@H]1[C@@H]2CC[C@@]2(C)[C@H]1CC[C@]2(C)O             n
5  CCOc1cc(Oc2ccc(C(F)(F)F)cc2Cl)ccc1[N+](=O)[O-]             n

Problem: Name the outcome recorded for CN(C)CCN(C)C in the assay.
Result: n

Problem: Name the outcome recorded for O=C(NC(O)C(Cl)(Cl)Cl)NC(O)C(Cl)(Cl)Cl (configuration not stated) in the assay.
Result: n

Problem: Name the outcome recorded for ClC1=C(Cl)[C@]2(Cl)[C@@H]3[C@@H](Cl)[C@H]4O[C@H]4[C@@H]3C1(Cl)C2(Cl)Cl in the assay.
Result: n

Problem: Name the outcome recorded for CC(C)[C@H](C(=O)OC(C#N)c1cccc(Oc2ccccc2)c1)c1ccc(OC(F)F)cc1 (some centres not stated) in the assay.
Result: n

Problem: Name the outcome recorded for CC(O)C(=O)[O][Hg][c]1ccccc1 (configuration not stated) in the assay.
Result: y

Problem: Name the outcome recorded for Nc1ccc(N=Nc2ccccc2)cc1 in the assay.
Result: n
